# maps each entry to its CC50 at 3 days
assay-name: in vitro
Format: cell-based
measurement-context: human

- compound: "[N-]=[N+]=NC1(CO)OC(n2cnc3c(N)nc(F)nc32)C(F)C1O (centres unmarked) [Ib]"
  CC50 at 3 days: "> 149 µM"

Query :: Query (compound): C#CC1(CO)OC(n2cnc3c(N)nc(F)nc32)C(F)C1O (centres unmarked) [Compound Ia] ; field requested: CC50 at 3 days
Result :: > 8 µM

* * *

System: CD4+ T cells (Hut/CCR5)
assay-name: in vitro
Format: cell-based
recorded-metric: CC50
Quick note: unit goes after the number.

Query :: Query (compound): [N-]=[N+]=NC1(COP(=O)(O)OP(=O)(O)OP(=O)(O)O)OC(n2ccc(N)nc2=O)CC1O (stereo not shown) [Compound Ig-TP] ; field requested: CC50
Result :: 8.13 µM
